# experimental-details: method code SF-AS, from DOI: 10.1002/jps.2600600712, PMID: 4398902
measure-name: logP
Answer using only a numeral; do not append any unit.

Value of logP reported for the compound S=C1CCCO1 is 0.6

* * *

# experimental-details: method code SF-AS, from DOI: 10.1007/bf02857814, PMID: 1608986
measure-name: logP
Output: the number by itself.

The recorded logP for entry CCn1cc(C(=O)NC(CCCNC(=N)N)C(=O)OC)c(=O)c2ccc(C)nc21 (stereo unspecified) equals 0.39

* * *

measure-name: logP
Please give the numeric answer without any surrounding text.

Looking up FC(F)(F)Cl , I found its logP recorded as 1.56

* * *

Reported logP values are given for each entry in this list.
Hey, just send me the number, nothing else.

> print(dat)
              compound  observed.value
1  Nc1cc(Cl)c(Cl)cc1Cl            3.31

Could you now consider this next compound?
Record Nc1c(Cl)c(Cl)cc(Cl)c1Cl . Reported logP: 4.06

* * *

measure-name: logP
Form rule: numeric answer, no unit written next to it.

The value of logP measured for the compound c1cnc(N2CCN(Cc3ccc4c(c3)OCO4)CC2)nc1 turned out to be 2.84

* * *

# experimental-details: method code SF-AS, from Kourounakis, P.; Chilliard, N. (1983). Ionization constants and partition coefficients of some 1,1-diphenyl-1-alkoxy-3-dialkylamino-2-propanones with analgesic activity. Pharmazie, 38(6)388-389.
# experimental-context: pH 7.4
Recorded logD values for a group of compounds are listed next.
Answer with a number only.

As a guide, the following entries are already answered.
> print(dat)
                                 compound  measure.name  observed.value
1    CCCOC(C(=O)CN(C)C)(c1ccccc1)c1ccccc1          logD            1.73
2   C#CCOC(C(=O)CN(C)C)(c1ccccc1)c1ccccc1          logD             0.7
3  CCOC(C(=O)CN1CCOCC1)(c1ccccc1)c1ccccc1          logD            1.08

Value of measured logD for the entry CC#CCOC(C(=O)CN(C)C)(c1ccccc1)c1ccccc1 : 0.85

* * *

Examples of compounds with documented logD follow.
# experimental-details: method code SF-RC, from DOI: 10.1016/j.nucmedbio.2005.06.001, PMID: 16253804
# experimental-context: pH 7.4
Output: the number by itself.

Note to self: logD recorded for CNc1ccc(C=Cc2ccc(OCCOCCOCCF)cc2)cc1 was 2.41

logD reading for CNc1ccc(C=Cc2ccc(OCCOCCF)cc2)cc1 : 2.52

* * *

# experimental-details: method code SF, from DOI: 10.1093/jnci/60.2.345, PMID: 621753
measure-name: logP
// return a plain number; no unit text

> print(dat)
                 compound  observed.value
1  O=NN(CCCl)C(=O)N1CCCC1             0.9

For O=NN(CCCl)C(=O)NCCO the molecule record lists logP as 0.3

* * *

# experimental-details: method code SF, from Yoshimoto, M. (1982). Quantitative structure-activity relationships and structure patterns of drugs. SankyoÌ„ KenkyuÌ„jo nenpoÌ„ (Annual report of Sankyo Research Laboratories), 34, 1-38.
measure-name: logP
Just the number, please, no unit after it.

Reference set, count: 4
> print(dat)
                                   molecule  observed.value
1  COC1(NC(=O)CSc2nnc(C)s2)C(=O)N2C(C(=O)O)=C(COC(N)=O)CSC21 (stereo not given)           -2.16
2  CCCCCSCC(=O)NC1(OC)C(=O)N2C(C(=O)O)=C(COC(N)=O)CSC21 (stereo not given)           -1.31
3  COC1(NC(=O)CSc2[nH]cnc3ncnc2-3)C(=O)N2C(C(=O)O)=C(COC(N)=O)CSC21 (stereo not given)           -1.99
4  CCCSCC(=O)NC1(OC)C(=O)N2C(C(=O)O)=C(COC(N)=O)CSC21 (stereo not given)           -1.76

// switching to the query molecule
molecule CCCCSCC(=O)NC1(OC)C(=O)N2C(C(=O)O)=C(COC(N)=O)CSC21 (stereo not given) , logP observed: -1.57
